Literature IC50 values, system: Amine oxidase [flavin-containing] B (Homo sapiens).
Sequence (P27338 whole entry): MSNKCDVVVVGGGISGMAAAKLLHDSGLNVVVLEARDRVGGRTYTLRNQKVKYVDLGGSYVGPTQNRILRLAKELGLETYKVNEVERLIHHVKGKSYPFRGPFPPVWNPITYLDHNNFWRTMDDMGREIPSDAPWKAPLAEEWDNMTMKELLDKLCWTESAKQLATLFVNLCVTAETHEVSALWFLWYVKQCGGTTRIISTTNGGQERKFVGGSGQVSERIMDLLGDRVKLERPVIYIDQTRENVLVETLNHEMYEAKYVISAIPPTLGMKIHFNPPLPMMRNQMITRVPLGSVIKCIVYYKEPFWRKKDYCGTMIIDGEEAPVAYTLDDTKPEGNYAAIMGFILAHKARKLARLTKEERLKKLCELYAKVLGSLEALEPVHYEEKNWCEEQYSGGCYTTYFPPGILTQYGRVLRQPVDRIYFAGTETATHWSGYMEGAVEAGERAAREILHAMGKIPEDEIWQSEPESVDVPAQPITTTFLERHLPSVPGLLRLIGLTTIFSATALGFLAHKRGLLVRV
Recorded IC50 split into classes bottom (below 0.7 µM), middle (0.7 µM to below 9 µM), top (9 µM or more)

Worked examples follow.
O=C(Nc1ccc(O)cc1)c1coc2ccccc2c1=O : bottom
Cn1c(=O)c2c(nc3n2CCCN3c2cc(Cl)cc(Cl)c2)n(C)c1=O : top
O=C(/C=C/c1ccc2c(c1)OCO2)N1CCCC1 : middle
C/C(=N\NC(=O)Cn1c(=O)c(Cc2ccccc2)nc2ccccc21)c1ccc(O)cc1 : top

Please let me know in which category the item C#CCNCc1ccnc2c(O)cccc12 belongs.
middle

Now try N[C@]1(CCc2ccccc2)C[C@H]1c1ccccc1 (racemic) .
middle

Now try COc1cccc(OCc2ccc(Br)cc2)c1 .
middle

Now try CCCn1c(=O)c2c(nc3n2CCCN3CC(=O)N2CCN(Cc3ccccc3)CC2)n(CCC)c1=O .
top

Now try Cc1c(C)c2ccc(OC/C=C/C3=CC(=O)C(C)(C)O3)cc2oc1=O .
bottom
